# credit: patent US9938269B2

test: Determination of the microsomal half-life, rat liver microsomes; settings: rat, liver microsomes, pH 7.4
Counter-ions that a name gives are not always drawn.
Recorded microsomal CLint at 0.5 μM values for a group of molecules are listed next.
property.measured: microsomal CLint at 0.5 μM

molecule	result
O=C1c2c(N3CCC4(COC4)C3)ccnc2CN1CCc1nc2ccccc2s1 [compound 424]	< 100 µL/min/mg
O=C1c2c(-c3ccc(F)cc3)ccnc2CN1CCc1nc2ccccc2s1 [compound 542, trifluoroacetate]	100 to 220 µL/min/mg
CCc1csc(CCN2Cc3nccc(N4CCOCC4)c3C2=O)n1 [compound 516]	100 to 220 µL/min/mg

====

assay: Determination of the microsomal half-life, rat liver microsomes; conditions: rat, liver microsomes, pH 7.4
Counter-ions that a name gives are not always drawn.
property.measured: microsomal CLint at 0.5 μM

molecule	result
CC(C)c1ccc(CCN2Cc3nccc(N4CCOCC4)c3C2=O)nc1	100 to 220 µL/min/mg
Cc1ccc2c(c1)nc(CCN1Cc3nccc(-c4ccnn4C)c3C1=O)n2C	< 100 µL/min/mg
O=C1c2cccc(-c3cscn3)c2CN1CCc1cn2ccccc2n1	100 to 220 µL/min/mg
COc1cccc(CCN2Cc3nccc(N4CCOCC4)c3C2=O)n1	< 100 µL/min/mg
Cc1ncc(-c2ccnc3c2C(=O)N(CCc2ccc4ccccc4n2)C3)s1	100 to 220 µL/min/mg
CCc1ccc(CCN2Cc3nccc(-c4ccncc4)c3C2=O)nc1 [compound 501, trifluoroacetate]	100 to 220 µL/min/mg
O=C1c2c(-c3cncnc3)cc[n+]([O-])c2CN1CCc1ccc2ccccc2n1	< 100 µL/min/mg
O=C1c2c(N3CCOCC3)ccnc2CN1CCc1ccc(Cl)cn1	< 100 µL/min/mg
O=C1c2cccc(OCc3cccnc3)c2C(=O)N1CCc1ccc2ccccc2n1	> 220 µL/min/mg
O=C1c2c(cccc2N2CC[S+]([O-])CC2)CN1CCc1ccc2ccccc2n1	< 100 µL/min/mg
O=C1c2c(N3CCC4(COC4)C3)ccnc2CN1CCc1ccc2ccccc2n1	100 to 220 µL/min/mg
COc1ccc(NC2COC2)c2c1CN(CCc1nc3ccccc3n1C)C2=O	100 to 220 µL/min/mg
O=C1c2cccc(N3CCOCC3)c2CN1CCc1ccc2ccccc2n1	> 220 µL/min/mg
O=C1c2nccc(-c3ccncc3)c2CN1CCc1ccc2ccccc2n1	100 to 220 µL/min/mg

====

target: PDE10A (human) (Homo sapiens, UniProt Q9Y233)
Sequence (Q9Y233 whole entry): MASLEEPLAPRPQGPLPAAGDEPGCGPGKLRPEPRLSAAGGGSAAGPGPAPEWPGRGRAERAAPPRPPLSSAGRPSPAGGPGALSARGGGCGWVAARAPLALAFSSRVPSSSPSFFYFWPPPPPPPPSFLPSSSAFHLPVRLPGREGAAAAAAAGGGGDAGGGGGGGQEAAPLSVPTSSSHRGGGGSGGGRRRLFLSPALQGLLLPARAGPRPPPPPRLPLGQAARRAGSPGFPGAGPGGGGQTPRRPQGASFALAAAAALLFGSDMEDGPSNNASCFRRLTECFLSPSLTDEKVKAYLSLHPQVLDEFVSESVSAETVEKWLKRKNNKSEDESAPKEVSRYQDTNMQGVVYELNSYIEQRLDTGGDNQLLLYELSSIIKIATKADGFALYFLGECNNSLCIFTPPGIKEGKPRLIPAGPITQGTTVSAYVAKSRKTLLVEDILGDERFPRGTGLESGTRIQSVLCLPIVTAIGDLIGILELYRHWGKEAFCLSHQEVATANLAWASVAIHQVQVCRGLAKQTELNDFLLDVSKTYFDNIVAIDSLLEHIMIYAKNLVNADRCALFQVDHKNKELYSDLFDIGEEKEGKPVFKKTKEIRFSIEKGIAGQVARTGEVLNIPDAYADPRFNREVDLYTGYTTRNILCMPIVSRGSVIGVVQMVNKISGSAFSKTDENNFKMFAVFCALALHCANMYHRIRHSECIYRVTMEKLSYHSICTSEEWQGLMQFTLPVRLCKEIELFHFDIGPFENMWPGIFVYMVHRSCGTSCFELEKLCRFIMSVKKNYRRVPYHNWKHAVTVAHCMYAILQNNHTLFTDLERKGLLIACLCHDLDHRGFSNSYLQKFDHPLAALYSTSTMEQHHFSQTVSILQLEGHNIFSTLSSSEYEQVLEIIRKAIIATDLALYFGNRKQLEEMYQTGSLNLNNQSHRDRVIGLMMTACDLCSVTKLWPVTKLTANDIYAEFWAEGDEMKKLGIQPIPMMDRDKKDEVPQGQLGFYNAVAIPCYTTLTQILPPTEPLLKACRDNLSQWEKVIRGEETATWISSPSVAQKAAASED
pIC50: −log10 of the molar value. Structures can show the parent of a compound that is named as a salt.
This section presents compounds with their documented pIC50 values.
property.measured: pIC50

compound	property.measured	result
O=C1c2c(cccc2N2CCSCC2)CN1CCc1ccc2ccccc2n1	pIC50	> 7.00
Cn1nccc1-c1cccc2c1C(=O)N(CCc1nc3ccccc3[nH]1)C2 [Example 313, trifluoroacetate]	pIC50	6.30 to 6.70
O=C1c2c(cccc2-c2ccccc2)CN1CCc1ccc2ccccc2n1	pIC50	6.70 to 7.00

====

We begin with a simple list: items and their reported IC50.
biological target: PDE10A (human) (Homo sapiens)
Structures can show the parent of a compound that is named as a salt.
property.measured: IC50

molecule	result
O=C1c2nccc(-c3cncnc3)c2CN1CCc1ccc2ccccc2n1	100 to 200 nM
O=C1c2c(N3CCS(=O)(=O)CC3)ccnc2CN1CCc1nc2ccccc2s1 [compound 390, trifluoroacetate]	< 100 nM
O=C1c2c(cccc2-c2ccnc(Cl)c2)CN1CCc1ccc2ccccc2n1 [Example 171, trifluoroacetate]	100 to 200 nM

====

assay: Determination of the microsomal half-life, human liver microsomes; details: human, liver microsomes, pH 7.4
Structures can show the parent of a compound that is named as a salt.

compound	microsomal CLint at 0.5 μM
O=C1c2c(cccc2N2CCOCC2)CN1CCc1nc2ccccc2n1C(F)F [compound 449, trifluoroacetate]	100 to 220 µL/min/mg
O=C1c2c(-c3ccncc3)ccnc2CN1CCc1ccc2sccc2n1 [compound 472]	100 to 220 µL/min/mg
O=C1c2c(cccc2-c2ccc3[nH]c(=O)[nH]c3c2)CN1CCc1cn2ccccc2n1 [Example 245]	< 100 µL/min/mg
COc1ccc(NC2COC2)c2c1CN(CCc1nc3ccccc3n1C)C2=O [compound 411]	> 220 µL/min/mg
Cc1ccc2c(c1)nc(CCN1Cc3nccc(-c4cccnc4)c3C1=O)n2C [compound 539]	< 100 µL/min/mg
O=C1c2c(-c3cncnc3)ccnc2CN1CCc1nc2ccccc2s1 [compound 544]	< 100 µL/min/mg

====

experiment: Determination of the microsomal half-life, human liver microsomes; details: human, liver microsomes, pH 7.4
Where a name gives a salt, the structure may show the parent alone.

compound	microsomal CLint at 0.5 μM
O=C1c2c(cccc2OCc2ccccn2)CN1CCc1ccc2ccccc2n1	100 to 220 µL/min/mg
O=C1c2c(-c3ccncc3)ccnc2CN1CCc1ccc(-c2ccccc2)cn1 [compound 488, trifluoroacetate]	100 to 220 µL/min/mg
O=C1c2c(cccc2-c2ccc3[nH]c(=O)[nH]c3c2)CN1CCc1ccc2ccccc2n1 [Example 9, trifluoroacetate]	< 100 µL/min/mg
COc1ccc(-c2ccnc3c2C(=O)N(CCc2ccc4ccccc4n2)C3)cc1	100 to 220 µL/min/mg
Cc1ccc(COc2cccc3c2C(=O)N(CCc2ccc4ccccc4n2)C3)cn1	100 to 220 µL/min/mg
COc1ccc(-c2ccncc2)c2c1C(=O)N(CCc1cn3ccccc3n1)C2 [compound 448, trifluoroacetate]	< 100 µL/min/mg
Cn1c(CCN2Cc3cccc(N4CCOCC4)c3C2=O)nc2ccccc21	< 100 µL/min/mg
O=C1c2c(cccc2N2CCC3(COC3)C2)CN1CCc1ccc2ccccc2n1	> 220 µL/min/mg
O=C1c2cccc(-c3ccnnc3)c2CN1CCc1ccc2ccccc2n1	< 100 µL/min/mg
CN(C)CCOc1ccc(-c2ccncc2)c2c1CN(CCc1ccc3ccccc3n1)C2=O	< 100 µL/min/mg

====

# collection of pIC50 values tested on PDE10A (human) (Homo sapiens)
pIC50: −log10 of the molar value. Structures can show the parent of a compound that is named as a salt.

compound	pIC50
Cn1c(CCN2Cc3nccc(-c4ccncc4)c3C2=O)nc2ccccc21	> 7.00
O=C1c2c(N3CCOCC3)ccc(F)c2CN1CCc1cn2ccccc2n1	> 7.00
Cc1ccc2nc(CCN3Cc4nccc(-c5ccncc5)c4C3=O)ccc2c1	> 7.00
O=C1c2c(cccc2NC2CCS(=O)(=O)C2)CN1CCc1ccc2ccccc2n1 (stereo not shown)	6.70 to 7.00
O=C1c2c(-c3ccncc3)ccnc2CN1CCc1cc(-c2ccncc2)c2ccccc2n1	> 7.00
O=C1c2c(N3CCC(F)(F)CC3)ccnc2CN1CCc1nc2ccccc2s1 [compound 527, trifluoroacetate]	> 7.00
O=C1c2c(cccc2NCc2ccncc2)CN1CCc1ccc2ccccc2n1	6.30 to 6.70
Cc1ccc(CCN2Cc3nccc(N4CCS(=O)(=O)CC4)c3C2=O)nc1 [compound 479, trifluoroacetate]	6.30 to 6.70
COc1ccc(-c2cc[nH]n2)c2c1C(=O)N(CCc1cn3ccccc3n1)C2	6.70 to 7.00
COc1ccc(-c2cccc3c2C(=O)N(CCc2ccc4ccccc4n2)C3)cc1	> 7.00
O=C1c2c(cccc2-c2ccc3nc[nH]c3c2)CN1CCc1ccc2ccccc2n1 [Example 11, trifluoroacetate]	> 7.00
O=C1c2c(-c3cccnc3)ccc(F)c2CN1CCc1cn2ccccc2n1	> 7.00
Cn1nccc1-c1ccnc2c1C(=O)N(CCc1ccc3ccccc3n1)C2 [Example 162, hydrochloride]	> 7.00
O=C1c2c(N3CCC(CF)C3)ccnc2CN1CCc1cn2ccccc2n1 (stereo not shown)	> 7.00
COc1ccc(-c2ccnc3c2C(=O)N(CCc2nc4ccccc4s2)C3)cc1 [compound 541, trifluoroacetate]	6.70 to 7.00
O=C(O)C1CN(c2ccnc3c2C(=O)N(CCc2ccc4ccccc4n2)C3)C1	6.70 to 7.00
COc1ccc(-c2ccnn2C)c2c1C(=O)N(CCc1nc3ccccc3s1)C2	> 7.00
O=C1c2c(N3CCOCC3)ccnc2CN1CCc1ccc2ccccc2n1	> 7.00
O=C1c2cccc(-c3cc[nH]n3)c2CN1CCc1cn2ccccc2n1 [Example 314, trifluoroacetate]	> 7.00
Cc1ccc(CCN2Cc3nccc(-c4ccncc4)c3C2=O)nc1 [compound 481, trifluoroacetate]	6.30 to 6.70
O=C1c2c(-c3cncnc3)ccc(F)c2CN1CCc1cn2ccccc2n1	> 7.00
O=C1c2c(-c3ccncc3)ccnc2CN1CCc1cn2cc(F)ccc2n1 [compound 494, trifluoroacetate]	> 7.00
O=C1c2c(-c3cccnc3)ccnc2CN1CCc1nc2ccccc2s1 [compound 430, trifluoroacetate]	> 7.00
O=C1c2c(N3CCOCC3)ccnc2CN1CCc1ccc(Cl)cn1	6.30 to 6.70
O=C1c2c(-c3cc[nH]n3)ccnc2CN1CCc1cn2ccccc2n1	> 7.00

====

target: UniProt:Q9Y233
Where a name gives a salt, the structure may show the parent alone.

molecule	target.entity	IC50
O=C(O)C(F)(F)F.O=C1c2c(-c3ccnc(F)c3)ccnc2CN1CCc1nc2ccccc2s1 [compound 421, trifluoroacetate]	UniProt:Q9Y233	< 100 nM
COc1ccc(-c2ccc(OC)c3c2CN(CCc2cn4ccccc4n2)C3=O)cc1 [compound 457, trifluoroacetate]	UniProt:Q9Y233	< 100 nM
COc1ccc(-c2ccc(OC)c3c2C(=O)N(CCc2ccc4ccccc4n2)C3)cc1	UniProt:Q9Y233	100 to 200 nM
CN(C)CCOc1ccc(-c2ccncc2)c2c1CN(CCc1ccc3ccccc3n1)C2=O	UniProt:Q9Y233	< 100 nM
Cn1nccc1-c1cccc2c1C(=O)N(CCc1cn3ccccc3n1)C2	UniProt:Q9Y233	100 to 200 nM
Cn1c(CCN2Cc3cccc(-c4cncnc4)c3C2=O)nc2ccccc21	UniProt:Q9Y233	< 100 nM
O=C1c2c(cccc2N2C3CCC2CNC3)CN1CCc1ccc2ccccc2n1	UniProt:Q9Y233	200 to 500 nM
O=C1c2c(-c3ccc(F)cc3)ccc(F)c2CN1CCc1ccc2ccccc2n1	UniProt:Q9Y233	< 100 nM
O=C1c2c(cccc2-c2ccncc2)CN1CCc1cn2ccccc2n1	UniProt:Q9Y233	< 100 nM
Cc1cnc(-c2cccc3c2CN(CCc2ccc4ccccc4n2)C3=O)cn1	UniProt:Q9Y233	< 100 nM
CCc1ccn2cc(CCN3Cc4nccc(-c5ccncc5)c4C3=O)nc2c1	UniProt:Q9Y233	< 100 nM
O=C1c2c(N3CCOCC3)ccnc2CN1CCc1nc(C2CC2)cs1	UniProt:Q9Y233	< 100 nM
O=C1c2cccc(N3CCS(=O)(=O)CC3)c2C(=O)N1CCc1ccc2ccccc2n1	UniProt:Q9Y233	< 100 nM
O=C1c2c(-c3ccncc3)ccnc2CN1CCc1cnc2ccccc2n1	UniProt:Q9Y233	< 100 nM
O=C1c2c(cccc2N2CCS(=O)(=O)CC2)CN1CCc1ccc2ccccc2n1	UniProt:Q9Y233	< 100 nM
O=C1c2c(cccc2-c2cncnc2)CN1CCc1ccc2ccccc2n1	UniProt:Q9Y233	< 100 nM
O=C1c2c(N3CCC(O)CC3)ccnc2CN1CCc1ccc2ccccc2n1 [compound 530, trifluoroacetate]	UniProt:Q9Y233	< 100 nM
O=C1c2c(cccc2-c2ccc3[nH]ncc3c2)CN1CCc1ccc2ccccc2n1	UniProt:Q9Y233	200 to 500 nM
CC(C)n1c(CCN2Cc3cccc(-c4ccncc4)c3C2=O)nc2ccccc21 [Example 303, trifluoroacetate]	UniProt:Q9Y233	100 to 200 nM
Cc1ccc2c(c1)nc(CCN1Cc3cccc(N4CCOCC4)c3C1=O)n2C [Example 306, trifluoroacetate]	UniProt:Q9Y233	< 100 nM
CCc1ccn2cc(CCN3Cc4nccc(N5CCOCC5)c4C3=O)nc2c1	UniProt:Q9Y233	< 100 nM
Cn1nccc1-c1ccnc2c1C(=O)N(CCc1nc3ccccc3n1C)C2	UniProt:Q9Y233	100 to 200 nM
Cn1cc(-c2cccc3c2C(=O)N(CCc2ccc4ccccc4n2)C3)cn1	UniProt:Q9Y233	100 to 200 nM
Cc1cnc(CCN2Cc3nccc(-c4ccncc4)c3C2=O)cc1C [compound 507, trifluoroacetate]	UniProt:Q9Y233	200 to 500 nM
COc1ccc(-c2cncnc2)c2c1C(=O)N(CCc1cn3ccccc3n1)C2 [compound 549, trifluoroacetate]	UniProt:Q9Y233	< 100 nM
COc1ccc(-c2cccc3c2C(=O)N(CCc2ccc4ccccc4n2)C3)cc1F	UniProt:Q9Y233	200 to 500 nM
